Reference for the values: PubChem BioAssay (NCI)

- procedure details: NCI Yeast Anticancer Drug Screen. Data for the mlh1 rad18 strain (AID 175)
- cond: S. cerevisiae mlh1 rad18 strain growth inhibition; at 50.0 µM (retest, dose inferred, filed as 5.0)
About 79,000 compounds went through this panel and 15% of them were active in at least one assay; those are over-represented in the sample as a whole. Active and inactive are the calls of the source. Cut-off read from the data, not from the text of the source: active = growth inhibition above about 70%; inactive = the rest.
Give one outcome, nothing more. List: yes (1) = active, no (0) = inactive

Exercise: Which outcome was assigned to O=C(O)C(Cc1cc(I)c(O)c(I)c1)C1CCCCC1 (centres undefined) in this test?
Solution: yes (1)

Exercise: # lookup: test call for OC(C1CCC=NN1C(O)(C(F)(F)F)C(F)(F)F)(C(F)(F)F)C(F)(F)F (centres undefined)
Solution: yes (1)

Exercise: Write down the call the test reported for this compound. Item: "O=C1c2cc([N+](=O)[O-])cc3cc([N+](=O)[O-])cc(c23)C(=O)N1CCCNCCNCCCN1C(=O)c2cc([N+](=O)[O-])cc3cc([N+](=O)[O-])cc(c23)C1=O"
Solution: yes (1)

Exercise: Can you look up the reported call for CC1=C(C)C(N2CCOCC2)CS(=O)(=O)O1 (centres undefined) for me?
Solution: no (0)

----------
- procedure details: NCI Yeast Anticancer Drug Screen. Data for the bub3 strain (AID 167)
- cond: S. cerevisiae bub3 mutant strain, at 5.0 µM (retest, dose inferred, filed as 0.5)
About 79,000 compounds went through this panel and 15% of them were active in at least one assay; those are over-represented in the sample as a whole. The source made the active and inactive calls. No stated cut-off is given here; in the data, active means growth inhibition above about 70%; inactive means the rest.
Could you please pick one outcome from this set? label 1 = active, label 0 = inactive

// below: answered compounds
- compound: "Clc1ccc(C(CCOc2ccccc2Br)Cn2ccnc2)c(Cl)c1 (stereo not drawn)"
  class: "label 1"
- compound: "Clc1ccccc1C=Nc1cccc2ccccc12"
  class: "label 0"
- compound: "O=c1[nH]c2ccc([N+](=O)[O-])c(Cl)c2c2ccccc12"
  class: "label 0"
- compound: "Cc1ccc2c(c1)nc1n2C(N)=Nc2ccccc2S1"
  class: "label 0"
- compound: "CN(C)c1ccc(/C=C/c2ccnc3ccccc23)cc1Cl"
  class: "label 0"

Exercise: Call for entry "CCC(=O)Nc1ccc(NC(C)=O)cc1" :
Solution: label 0

Exercise: Please state the recorded outcome for this compound: CCOC(=O)c1ccc(N(CCC(O)CN=[N+]=[N-])S(=O)(=O)c2ccc(C)cc2)cc1 (stereo not drawn)
Solution: label 0

Exercise: Test call for this compound, please: "O=C1Nc2c(Cl)cc(Cl)cc2/C1=N/N=C/c1ccco1"
Solution: label 0

Exercise: Please indicate how the test categorized "O=C(Cl)C(c1ccccc1)(c1ccccc1)c1ccccc1" .
Solution: label 0

Exercise: Could you kindly confirm the outcome this assay logged for "C/C(=N\Nc1n[nH]c(=S)n1N)c1c(O)cc(C)oc1=O" ?
Solution: label 0

Exercise: Look up the recorded call for "CC(=O)c1cc(I)c(O)c2ncccc12" in this test.
Solution: label 0

----------
- procedure details: NCI Yeast Anticancer Drug Screen. Data for the rad50 strain (AID 155);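 note: 0% = growth of vehicle-only cultures of the same strain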
- cond: S. cerevisiae rad50 strain growth inhibition; at 50.0 µM; active compounds read high
Compounds without any hit were thinned out: in the full panel of roughly 79,000, 15% have a hit.
readout kind: growth inhibition (%)
Give bare numbers, in %.

Solved cases below.
- compound: "CC(=O)OC1C2C3C(C=CC2[C@H]1OC(C)=O)C1C3C=CC2C1C(OC(C)=O)[C@@H]2OC(C)=O (some centres undefined)"
  readout unit: "%"
  growth inhibition: 18.4
- compound: "CCOC(=O)c1c(C)n(C)c2c1nnc1ccccc12"
  readout unit: "%"
  growth inhibition: 64.7
- compound: "Cc1nc(-c2ccc(N=Cc3ccc(N(CCOS(C)(=O)=O)CCOS(C)(=O)=O)cc3Cl)cc2)c(C)s1"
  readout unit: "%"
  growth inhibition: 40.1

// for each compound in input: emit growth inhibition
1. O=C(O)CCC12CCCCC1=NC1(CCCCC1)NC2=O (centres undefined)
2. Cc1ccc([S@](=O)c2occc2C=O)cc1
3. CC(C)c1ccc(N2C(=O)C=CC2=O)cc1

Solution:
10.6
74.5
99.7

Provide reported growth inhibition for each item, in the same order as listed.
1. Cc1ccc(Nc2nc(C)c(C(/C=C/c3ccc4c(c3)OCO4)=N/Nc3ccc([N+](=O)[O-])cc3[N+](=O)[O-])s2)c([N+](=O)[O-])c1
2. CCOC(=O)CSC(=S)N1CCOCC1
3. Cc1cc(Br)c(NC(=O)CBr)cc1C
4. CCOc1ccc(C(=O)CCN2CCOCC2)cc1
5. Cc1cccc(N2C(=O)c3ccccc3C2(c2ccccc2)N2CCCCC2)c1 (centres undefined)
6. COc1ccc(-c2c(-c3ccccc3)c(C)nc3nc(SC)nc(SC)c23)cc1OC
7. N#Cc1ccc(Oc2nc3ccccc3nc2-c2ccccc2)cc1

Solution:
[53.5, 37, 42.3, 77.5, 65, 95, 38.2]

----------
Answer each item with its documented growth inhibition.
- procedure details: NCI Yeast Anticancer Drug Screen. Data for the bub3 strain (AID 167)
- cond: S. cerevisiae bub3 mutant strain, at 50.0 µM (retest, dose inferred, filed as 5.0), active compounds read high
This is part of a sample that, as a whole, favours compounds with a hit. Of some 79,000 tested, about 15% had one in any assay.
Answers are plain numbers, in %.

- compound: "Oc1ccc(-c2nnc(-c3ccccc3)nn2)cc1"
  growth inhibition, %: -19
- compound: "CCCCCCCCCCC(NC(C)=O)(C(=O)OCC)C(=O)OCC"
  growth inhibition, %: 98
- compound: "COc1ccc(/C=C/c2ccc3ccccc3n2)cc1OC"
  growth inhibition, %: 98
- compound: "CCCCOc1ccc(CC(O)CN2CCCCC2C)cc1 (stereo not given)"
  growth inhibition, %: 71
- compound: "CC(=O)OCCn1c2nc(=O)[nH]c(=O)c-2nc2cc(C)c(C)cc21"
  growth inhibition, %: 1

Report growth inhibition for every entry below.
1. CC(=O)NCC1OC2COC(c3ccccc3)OC2C(NC(=O)c2ccccc2)C1OC(=O)c1ccccc1 (stereo not given)
2. O=C1C=C/C(=C(/c2ccc(O)c(O)c2)c2ccccc2S(=O)(=O)O)C=C1O
3. O=c1c(-c2ccccc2)c(-c2ccccc2)c1=O
4. CC/C(=C1\C=CC(=O)S1)C(CC)c1ccc(OC(C)=O)cc1 (stereo not given)

Solution:
5
-3
84
99

// each listed compound needs a value for growth inhibition
1. Oc1cccc2ccncc12
2. O=C1/C(=C\c2ccc([N+](=O)[O-])o2)Oc2cc(O)ccc21
3. CCC1CCC2C3CC=C4CC(OC(C)=O)C(N)CC4(C)C3CCC12C (stereo not given)
4. CCOc1ccc(N=Nc2c(C)nn(C(=S)SC)c2OCC)cc1
5. Cc1cc(Cl)c2cc(Cc3ccc(Br)cc3)ccc2n1
6. O=S(=O)(SCc1ccccc1)C(c1ccccc1)c1ccccc1

Solution:
[14, 90, 95, 72, 12, 39]

Give growth inhibition for each of the items listed below.
1. C1=C(CC2=C[P+](c3ccccc3)(c3ccccc3)C=C(c3ccccc3)O2)OC(c2ccccc2)=C[P+]1(c1ccccc1)c1ccccc1
2. Cc1cc(N=Nc2ccccc2)ccc1O
3. CC(C)Cn1cnc2c(SCc3ccccc3[N+](=O)[O-])nc(N)nc21
4. Cc1ccc2c(c1)C1(SC(CC(=O)O)C(=O)N1c1ccc(Cl)cc1)C(=O)N2 (stereo not given)
5. CC(NC(=O)OCc1ccccc1)C(=O)NC(C(=O)O)C(C)C (stereo not given)

Solution:
1. 98
2. 99
3. -4
4. 0
5. 84

Please give growth inhibition, item by item, for the list that follows.
1. CCN(CC)CCC(=O)/C=C/c1ccc(C)cc1
2. CCOC(=O)c1c(N2CCCC2)nsc1Nc1ccc(F)cc1
3. Cc1nc2[nH]cc(C)c2c(=O)[nH]1
4. CCCCCCCCCCCCCC(=O)OCCCC1CCCO1 (stereo not given)

Solution:
1. 99
2. 92
3. -15
4. -3

Provide growth inhibition values for the following items, in order.
1. CCN(CC)CCCNc1cccc2ccc(OC)nc12
2. Nc1ccc2c(SCCCCCCCCSc3c4ccccc4nc4cc(N)ccc34)c3ccccc3nc2c1
3. CCCCCCCCCC1OCC(C)O1 (stereo not given)
4. Cc1nc2c(cnn2C)cc1CCc1ccccc1

Solution:
[40, 72, 36, 78]

# per-item lookup of growth inhibition; items listed below
1. CC(C)(CC#N)c1cc(CC(C)(C)c2cc(CC(C)(C)c3cc(CC(C)(C)C4(C)OCCO4)no3)no2)no1
2. COc1ccc(/C=C\Cc2cc3c(cc2OCCO)OCO3)cc1
3. O=C(O)CCCc1ccc2c(c1)CC1(C2)Cc2ccc(CCCC(=O)O)cc2C1
4. O=C(NNc1ccccc1)c1ccc([N+](=O)[O-])cc1
5. O=C1OCC2=C1C(c1ccc(Cl)cc1)c1cc3c(cc1O2)OCO3 (stereo not given)
6. CCCCCCCCCCCCNC(=O)c1ccc[n+](Cc2ccc(Cl)c(Cl)c2)c1
7. CC(=O)N1OC2(C)c3ccccc3C1(C)c1ccccc12

Solution:
1. 0
2. 96
3. 29
4. 96
5. 21
6. 98
7. 96

Required: growth inhibition, one value per compound below.
1. COc1cccc2c1C(=O)c1c(O)c3c(c(O)c1C2=O)CC(O)(C(C)=O)CC3OC1CC(N/C(C)=C/C(C)=O)C(O)C(C)O1 (stereo not given)
2. CC1=C(C(=O)OCCO[N+](=O)[O-])C(c2cccc([N+](=O)[O-])c2)C(C(=O)OC(C)C)=C(C)N1 (stereo not given)
3. Clc1ccc(OCC(Cn2ccnc2)c2ccc(Cl)cc2)cc1 (stereo not given)
4. CCOc1ccccc1C(=O)OCc1ccccc1
5. COc1nc2nc(Cl)cc(C)c2c2ccccc12 (tested in a mixture with another compound)
6. Nn1c(-c2ccccc2)nn(C(=O)c2ccccc2)c1=O
7. C=CC(=O)N1C/C(=C\c2ccc(F)cc2)C(=O)/C(=C/c2ccc(F)cc2)C1

Solution:
1. 98
2. 88
3. 98
4. -20
5. 94
6. 62
7. 94

Could you report growth inhibition for every entry in the following list?
1. NN(c1ccccc1)c1cccc2ccccc12
2. O=[N+]([O-])c1cc2[nH]cnc2c([N+](=O)[O-])c1NCc1ccccc1
3. CCOc1ccccc1/C=C1\NC(=O)N(/C=C2\C(=O)Oc3ccccc3C2=O)C1=O

Solution:
1. 96
2. 25
3. 96
